Tested on: HeLa Kyoto;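 also: synchronized HeLa Kyoto cells (double thymidine block for G1/S, nocodazole release for mitosis), protein amounts in NP-40 versus SDS lysates quantified by mass spectrometry, three biological replicates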
ASSAY SUMMARY: solubility change mitosis vs G1/S (difference of NP-40 vs SDS log2 ratios) (log2 ratio difference); higher = more soluble in mitosis
// not satisfied strictly below -0.05 in solubility change mitosis (log2); satisfied otherwise

**Q:** State whether the measured solubility change mitosis (log2) reaches -0.05, counting equality as reaching it, for MSAKPEVSLVREASRQIVAGGSAGLVEICLMHPLDVVKTRFQIQRCATDPNSYKSLVDSFRMIFQMEGLFGFYKGILPPILAETPKRAVKFFTFEQYKKLLGYVSLSPALTFAIAGLGSGLTEAIVVNPFEVVKVGLQANRNTFAEQPSTVGYARQIIKKEGWGLQGLNKGLTATLGRHGVFNMVYFGFYYNVKNMIPVNKDPILEFWRKFGIGLLSGTIASVINIPFDVAKSRIQGPQPVPGEIKYRTCFKTMATVYQEEGILALYKGLLPKIMRLGPGGAVMLLVYEYTYSWLQENW [SLC25A21]
**A:** satisfied

**Q:** State whether the measured solubility change mitosis (log2) reaches -0.05, counting equality as reaching it, for MTSFRLALIQLQISSIKSDNVTRACSFIREAATQGAKIVSLPECFNSPYGAKYFPEYAEKIPGESTQKLSEVAKECSIYLIGGSIPEEDAGKLYNTCAVFGPDGTLLAKYRKIHLFDIDVPGKITFQESKTLSPGDSFSTFDTPYCRVGLGICYDMRFAELAQIYAQRGCQLLVYPGAFNLTTGPAHWELLQRSRAVDNQVYVATASPARDDKASYVAWGHSTVVNPWGEVLAKAGTEEAIVYSDIDLKKLAEIRQQIPVFRQKRSDLYAVEMKKP [NIT2]
**A:** not satisfied

**Q:** State whether the measured solubility change mitosis (log2) reaches -0.05, counting equality as reaching it, for MARGGDTGCTGPSETSASGAAAIALPGLEGPATDAQCQTLPLTVLKSRSPSPRSLPPALSCPPPQPAMLEHLSSLPTQMDYKGQKLAEQMFQGIILFSAIVGFIYGYVAEQFGWTVYIVMAGFAFSCLLTLPPWPIYRRHPLKWLPVQESSTDDKKPGERKIKRHAKNN [SPCS1]
**A:** satisfied

**Q:** State whether the measured solubility change mitosis (log2) reaches -0.05, counting equality as reaching it, for MARCERLRGAALRDVLGRAQGVLFDCDGVLWNGERAVPGAPELLERLARAGKAALFVSNNSRRARPELALRFARLGFGGLRAEQLFSSALCAARLLRQRLPGPPDAPGAVFVLGGEGLRAELRAAGLRLAGDPSAGDGAAPRVRAVLVGYDEHFSFAKLREACAHLRDPECLLVATDRDPWHPLSDGSRTPGTGSLAAAVETASGRQALVVGKPSPYMFECITENFSIDPARTLMVGDRLETDILFGHRCGMTTVLTLTGVSRLEEAQAYLAAGQHDLVPHYYVESIADLTEGLED [PDXP]
**A:** not satisfied

**Q:** State whether the measured solubility change mitosis (log2) reaches -0.05, counting equality as reaching it, for MAATLGPLGSWQQWRRCLSARDGSRMLLLLLLLGSGQGPQQVGAGQTFEYLKREHSLSKPYQGVGTGSSSLWNLMGNAMVMTQYIRLTPDMQSKQGALWNRVPCFLRDWELQVHFKIHGQGKKNLHGDGLAIWYTKDRMQPGPVFGNMDKFVGLGVFVDTYPNEEKQQERVFPYISAMVNNGSLSYDHERDGRPTELGGCTAIVRNLHYDTFLVIRYVKRHLTIMMDIDGKHEWRDCIEVPGVRLPRGYYFGTSSITGDLSDNHDVISLKLFELTVERTPEEEKLHRDVFLPSVDNMKLPEMTAPLPPLSGLALFLIVFFSLVFSVFAIVIGIILYNKWQEQSRKRFY [LMAN2L]
**A:** not satisfied
